Biological target: Poly-ADP-ribose polymerase (PARP enzyme) (Rattus norvegicus, UniProt P27008)
Construct: Poly-ADP-ribose polymerase was isolated from rat liver; from tissue; host or cells: rat liver
Sequence (P27008 whole entry): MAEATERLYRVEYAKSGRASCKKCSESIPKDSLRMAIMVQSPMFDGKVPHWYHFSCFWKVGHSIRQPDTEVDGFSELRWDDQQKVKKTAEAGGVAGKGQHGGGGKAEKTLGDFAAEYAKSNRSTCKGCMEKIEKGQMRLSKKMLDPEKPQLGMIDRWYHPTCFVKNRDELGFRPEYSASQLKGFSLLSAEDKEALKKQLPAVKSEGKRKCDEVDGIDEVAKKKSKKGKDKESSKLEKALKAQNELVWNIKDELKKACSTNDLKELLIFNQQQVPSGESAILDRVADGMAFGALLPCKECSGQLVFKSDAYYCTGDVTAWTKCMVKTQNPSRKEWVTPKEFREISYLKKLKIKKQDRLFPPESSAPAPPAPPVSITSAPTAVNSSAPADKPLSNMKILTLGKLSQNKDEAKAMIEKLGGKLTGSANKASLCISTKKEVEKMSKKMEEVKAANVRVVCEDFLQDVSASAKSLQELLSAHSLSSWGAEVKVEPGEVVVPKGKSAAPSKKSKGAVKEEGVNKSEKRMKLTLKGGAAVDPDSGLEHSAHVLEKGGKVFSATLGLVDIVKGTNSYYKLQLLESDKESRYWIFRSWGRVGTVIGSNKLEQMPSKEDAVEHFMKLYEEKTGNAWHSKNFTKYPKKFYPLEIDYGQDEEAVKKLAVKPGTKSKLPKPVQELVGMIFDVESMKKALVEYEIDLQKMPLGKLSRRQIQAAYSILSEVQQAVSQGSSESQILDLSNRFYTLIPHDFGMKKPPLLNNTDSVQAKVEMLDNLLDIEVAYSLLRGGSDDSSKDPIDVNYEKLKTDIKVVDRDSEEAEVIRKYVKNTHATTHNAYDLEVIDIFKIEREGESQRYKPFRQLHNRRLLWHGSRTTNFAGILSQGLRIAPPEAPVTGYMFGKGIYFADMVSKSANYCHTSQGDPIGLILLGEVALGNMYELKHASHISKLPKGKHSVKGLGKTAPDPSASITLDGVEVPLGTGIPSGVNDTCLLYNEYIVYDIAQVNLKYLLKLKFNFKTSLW
Experiment: Inhibitory effect of benzimidazole derivatives on PARP enzyme in vitro ([3H]NAD+ incorporation)
Assay type: biochemical
Experimental: Assay to test inhibitory effects of benzimidazole derivatives on PARP enzyme in vitro. The potential inhibitory effect of benzimidazole derivatives were tested in this assay system. The PARP activity was determined in 130 μl reaction mixture contained 100 mM Tris-HCl buffer, pH 8.0, 10 mM MgCl2, 10% glycerol, 1.5 mM DTT, 1 mM [Adenine-2,8-^3H] NAD^+ (4.500 cpm/nmol), 10 μg activated DNA and 10 μg histones. […] The protein-bound radio-activity was determined by a LS-200 Beckman scintillation counter.
observable: IC50 (nM)
Numbers only, in nM.

Look over these answered cases.
CC1(C)c2cc(-c3nc4c(C(N)=O)cccc4[nH]3)sc2C(C)(C)N1[O] [Compound 24] ... 3400
CC1(C)C=C(c2nc3c(C(N)=O)cccc3[nH]2)C(C)(C)N1[O] [Compound 1] ... 721
CC1(C)C(c2ccccc2)=C(c2nc3c(C(N)=O)cccc3[nH]2)C(C)(C)N1[O] [Compound 7] ... 1500
CC1(C)C(c2cccc(C(F)(F)F)c2)=C(c2nc3c(C(N)=O)cccc3[nH]2)C(C)(C)N1[O] [Compound 9] ... 149

Could you now consider this next compound?
With Poly-ADP-ribose polymerase (PARP enzyme) (Rattus norvegicus, UniProt P27008) as the test system, provide measured IC50 for this compound: CC1(C)NC(C)(C)c2sc(-c3nc4c(C(N)=O)cccc4[nH]3)cc21 [Compound 25] 354

* * *

molecular target: Poly-ADP-ribose polymerase (PARP enzyme) (Rattus norvegicus, UniProt P27008); construct: Poly-ADP-ribose polymerase was isolated from rat liver; from tissue; host or cells: rat liver; assay: Inhibitory effect of benzimidazole derivatives on PARP enzyme in vitro ([3H]NAD+ incorporation); type: biochemical; conditions: PARP isolated from rat liver, 1 mM [3H]NAD+, 15 min incubation; read-out: PARP IC50
observable: IC50 (nM)
Numbers only, in nM.

Look over these answered cases.
CC1(C)NC(C)(C)C(c2nc3c(C(N)=O)cccc3[nH]2)=C1Br [Compound 6] ... 137
CON1C(C)(C)C=C(c2nc3c(C(N)=O)cccc3[nH]2)C1(C)C [Compound 15] ... 61

Could you now consider this next compound?
Give recorded IC50. CC1(C)C=C(c2ccc(-c3nc4c(C(N)=O)cccc4[nH]3)cc2)C(C)(C)N1 [Compound 12] 98
